Value source: ChEMBL document CHEMBL1938331

TARGET OR SYSTEM: Prostaglandin D2 receptor 2 (Homo sapiens)
Sequence (Q9Y5Y4 whole entry): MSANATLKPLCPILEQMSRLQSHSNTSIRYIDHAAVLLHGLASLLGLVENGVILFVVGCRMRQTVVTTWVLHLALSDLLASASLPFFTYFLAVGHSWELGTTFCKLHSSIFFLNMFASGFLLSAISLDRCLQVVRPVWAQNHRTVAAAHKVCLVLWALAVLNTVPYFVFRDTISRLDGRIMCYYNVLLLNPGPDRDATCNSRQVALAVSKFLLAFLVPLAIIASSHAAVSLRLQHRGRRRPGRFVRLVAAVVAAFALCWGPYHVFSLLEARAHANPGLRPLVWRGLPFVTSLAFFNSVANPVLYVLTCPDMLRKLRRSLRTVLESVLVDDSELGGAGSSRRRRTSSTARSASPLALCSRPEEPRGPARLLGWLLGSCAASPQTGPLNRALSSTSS
METHOD NOTES: Displacement of [3H]PGD2 from human CRTH2 receptor expressed in HEK293 cells after 2 hrs by scintillation counting
Entries annotated with measured log10 IC50
Hello, just confirming the data are log10 of IC50 with units of µM.

> print(dat)
                                   compound  measured.result
1  CC(Oc1cccc(CCCn2cc(C(c3ccccc3)c3ccccc3)ccc2=O)c1)C(=O)O (centres undefined)            -1.77
2  Cc1ccc(C(c2ccc(C)cc2)c2ccc(=O)n(CCCc3cccc(OCC(=O)O)c3)c2)cc1            -2.21
3  O=C(O)COc1cccc(CCCn2cc(C(c3ccc(F)cc3)c3ccc(F)cc3)ccc2=O)c1            -1.96
4  O=C(O)COc1cccc(CCCn2nc(C(c3ccccc3)c3ccccc3)ccc2=O)c1            -1.74
5  COc1ccc(C(=O)N(CCCc2cccc(OCC(=O)O)c2)CCC(c2ccccc2)c2ccccc2)cc1            -2.26

Retrieve log10 IC50 on Prostaglandin D2 receptor 2 (Homo sapiens); query O=C(O)CCCOc1cccc(CCCn2cc(C(c3ccccc3)c3ccccc3)ccc2=O)c1 -1.96

Report log10 IC50 on Prostaglandin D2 receptor 2 (Homo sapiens) for this entry: CCC(Oc1cccc(CCCn2cc(C(c3ccccc3)c3ccccc3)ccc2=O)c1)C(=O)O (centres undefined) -0.30

Would you please give the reported log10 IC50 of O=C(O)COc1cccc(OCCn2cc(C(c3ccccc3)c3ccccc3)ccc2=O)c1 with Prostaglandin D2 receptor 2 (Homo sapiens)? -1.00

Check Prostaglandin D2 receptor 2 (Homo sapiens) data and give log10 IC50 for O=C(O)CCCOc1cccc(CCCn2nc(C(c3ccccc3)c3ccccc3)ccc2=O)c1 . -1.89

* * *

TARGET OR SYSTEM: Chemoattractant receptor-homologous molecule expressed on Th2 cells (Cavia porcellus, UniProt Q56D28)
Sequence (Q56D28 whole entry): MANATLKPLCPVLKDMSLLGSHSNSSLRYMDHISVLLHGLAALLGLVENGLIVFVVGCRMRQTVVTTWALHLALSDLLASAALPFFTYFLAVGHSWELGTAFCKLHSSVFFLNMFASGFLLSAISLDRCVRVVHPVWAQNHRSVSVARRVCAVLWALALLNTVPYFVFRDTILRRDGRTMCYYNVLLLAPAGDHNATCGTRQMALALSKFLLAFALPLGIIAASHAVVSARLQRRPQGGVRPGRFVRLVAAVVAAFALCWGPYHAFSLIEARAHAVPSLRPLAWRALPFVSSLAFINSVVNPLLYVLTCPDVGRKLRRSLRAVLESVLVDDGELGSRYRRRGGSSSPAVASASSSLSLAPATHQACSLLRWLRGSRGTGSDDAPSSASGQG
METHOD NOTES: Displacement of [3H]PGD2 from guinea pig CRTH2 receptor expressed in HEK293 cells after 2 hrs by scintillation counting
Output condition met for records whose IC50 is lower than 300 nM, condition not met for records at or above 300 nM.

Field: example entries. Status: answers known.
> print(dat)
                                   molecule        label.value
1  O=C(O)COc1cccc(CCCn2cc(C(c3ccc(Cl)cc3)c3ccc(Cl)cc3)ccc2=O)c1  condition not met
2  CC(Oc1cccc(CCCn2cc(C(c3ccccc3)c3ccccc3)ccc2=O)c1)C(=O)O (centres undefined)      condition met
3  O=C(O)COc1cccc(OCCn2cc(C(c3ccccc3)c3ccccc3)ccc2=O)c1  condition not met
4  CC(C)(Oc1cccc(CCCn2cc(C(c3ccccc3)c3ccccc3)ccc2=O)c1)C(=O)O  condition not met
5  O=C(O)CCCOc1cccc(CCCn2cc(C(c3ccccc3)c3ccccc3)ccc2=O)c1      condition met
6  Cc1ccc(C(c2ccc(C)cc2)c2ccc(=O)n(CCCc3cccc(OCC(=O)O)c3)c2)cc1  condition not met
7  COc1ccc(C(=O)N(CCCc2cccc(OCC(=O)O)c2)CCC(c2ccccc2)c2ccccc2)cc1      condition met
8  O=C(O)COc1cccc(CCCN(CCC(c2ccccc2)c2ccccc2)C(=O)c2ccccc2)c1      condition met

Answer whether the molecule CCC(Oc1cccc(CCCn2cc(C(c3ccccc3)c3ccccc3)ccc2=O)c1)C(=O)O (centres undefined) has IC50 strictly less than 300 nM condition not met

Hi there! Is IC50 for COc1ccc(C(c2ccc(OC)cc2)c2ccc(=O)n(CCCc3cccc(OCC(=O)O)c3)c2)cc1 below 300 nM, do you know? condition met

is_below(IC50, 300 nM) for O=C(O)COc1cccc(CCCn2cc(C(c3ccc(F)cc3)c3ccc(F)cc3)ccc2=O)c1 ? condition not met

Consider O=C(O)COc1cccc(CCCn2cc(C(c3ccccc3)c3ccccc3)ccc2=O)c1 . Does its IC50 lie strictly below 300 nM? condition met

Item O=C(O)CCCOc1cccc(CCCn2nc(C(c3ccccc3)c3ccccc3)ccc2=O)c1 : IC50 beneath 300 nM, strictly? condition met

Hello, I'm reviewing records and need to know if IC50 of O=C(O)COc1cccc(CCCn2nc(C(c3ccccc3)c3ccccc3)ccc2=O)c1 is below 300 nM. Could you check? condition met
